Reference source for all entries: patent US5064954A

- Test system: S. aureus Smith
- experimental protocol: MIC against S. aureus Smith
- Format: cell-based
- assay setup: Staphylococcus aureus; Table I; S = S. aureus Smith; inoculum size = 10^5 /ml
In this section we review reported MIC values for a set of compounds.
recorded metric: MIC (µg/mL)

INSERT INTO results (compound, tested_on, unit, readout_value) VALUES
  ('CC(O)[C@H]1C(=O)N2C(C(=O)[O-])=C(C[n+]3ccc(CN)cc3)[C@H](C)[C@H]12 (stereo partly shown)', 'S. aureus Smith', 'µg/mL', 0.05),
  ('CC(O)[C@H]1C(=O)N2C(C(=O)[O-])=C(C[n+]3ccsc3)[C@H](C)[C@H]12 (stereo partly shown)', 'S. aureus Smith', 'µg/mL', 0.025),
  ('CC(O)[C@H]1C(=O)N2C(C(=O)[O-])=C(C[n+]3ccccc3)[C@H](C)[C@H]12 (stereo partly shown)', 'S. aureus Smith', 'µg/mL', 0.0125),
  ('CC(O)[C@H]1C(=O)N2C(C(=O)[O-])=C(C[n+]3cccc(F)c3)[C@H](C)[C@H]12 (stereo partly shown)', 'S. aureus Smith', 'µg/mL', 0.025);
